System: ATP;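 also: ATP exposure 15 min at 22 °C before imaging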
METHOD_DESCRIPTION: switch fluorescence ratio, 500 uM ATP over buffer (Cy3 cluster intensity, sum of 5 cycles each) (fold (ratio)); higher = stronger signal-on switching upon ATP binding; sequences stand for … in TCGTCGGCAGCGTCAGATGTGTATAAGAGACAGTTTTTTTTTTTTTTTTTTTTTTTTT…TC
EXPERIMENTAL_SETUP: aptamer strand: ATP DNA aptamer (quencher-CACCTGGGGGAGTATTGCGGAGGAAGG + anchor), 100 nM annealed; ATP concentration: 500 uM
Recorded switch fluorescence ratio values for a group of sequences are listed next.

- SEQUENCE_DATA: "AATGGGCAGT"
  TEST_TARGET: "ATP"
  switch fluorescence ratio: 0.989
- SEQUENCE_DATA: "GGAATCGGAA"
  TEST_TARGET: "ATP"
  switch fluorescence ratio: 1.02
- SEQUENCE_DATA: "TGCAGGGGGC"
  TEST_TARGET: "ATP"
  switch fluorescence ratio: 1.02
- SEQUENCE_DATA: "TTTCAAAGGG"
  TEST_TARGET: "ATP"
  switch fluorescence ratio: 0.994
- SEQUENCE_DATA: "AAAAGCGTTG"
  TEST_TARGET: "ATP"
  switch fluorescence ratio: 0.999
- SEQUENCE_DATA: "TATAAGAGCC"
  TEST_TARGET: "ATP"
  switch fluorescence ratio: 0.984
- SEQUENCE_DATA: "GGTGTCCGGT"
  TEST_TARGET: "ATP"
  switch fluorescence ratio: 0.998
- SEQUENCE_DATA: "TTAGGGGGTG"
  TEST_TARGET: "ATP"
  switch fluorescence ratio: 1.01
- SEQUENCE_DATA: "TGGGTTTGTA"
  TEST_TARGET: "ATP"
  switch fluorescence ratio: 0.984
- SEQUENCE_DATA: "GTTACATGCG"
  TEST_TARGET: "ATP"
  switch fluorescence ratio: 0.976
- SEQUENCE_DATA: "GTAGGGGGCG"
  TEST_TARGET: "ATP"
  switch fluorescence ratio: 1.01
- SEQUENCE_DATA: "TTGTCTAATT"
  TEST_TARGET: "ATP"
  switch fluorescence ratio: 1.01
- SEQUENCE_DATA: "TTGTTTCAGT"
  TEST_TARGET: "ATP"
  switch fluorescence ratio: 0.997
- SEQUENCE_DATA: "GCCATTGGGG"
  TEST_TARGET: "ATP"
  switch fluorescence ratio: 0.987
- SEQUENCE_DATA: "TATCCACATT"
  TEST_TARGET: "ATP"
  switch fluorescence ratio: 1.02
